Target: TLR1/TLR2 (Homo sapiens, UniProt O60603+Q15399)
Sequence (Q15399 25-786): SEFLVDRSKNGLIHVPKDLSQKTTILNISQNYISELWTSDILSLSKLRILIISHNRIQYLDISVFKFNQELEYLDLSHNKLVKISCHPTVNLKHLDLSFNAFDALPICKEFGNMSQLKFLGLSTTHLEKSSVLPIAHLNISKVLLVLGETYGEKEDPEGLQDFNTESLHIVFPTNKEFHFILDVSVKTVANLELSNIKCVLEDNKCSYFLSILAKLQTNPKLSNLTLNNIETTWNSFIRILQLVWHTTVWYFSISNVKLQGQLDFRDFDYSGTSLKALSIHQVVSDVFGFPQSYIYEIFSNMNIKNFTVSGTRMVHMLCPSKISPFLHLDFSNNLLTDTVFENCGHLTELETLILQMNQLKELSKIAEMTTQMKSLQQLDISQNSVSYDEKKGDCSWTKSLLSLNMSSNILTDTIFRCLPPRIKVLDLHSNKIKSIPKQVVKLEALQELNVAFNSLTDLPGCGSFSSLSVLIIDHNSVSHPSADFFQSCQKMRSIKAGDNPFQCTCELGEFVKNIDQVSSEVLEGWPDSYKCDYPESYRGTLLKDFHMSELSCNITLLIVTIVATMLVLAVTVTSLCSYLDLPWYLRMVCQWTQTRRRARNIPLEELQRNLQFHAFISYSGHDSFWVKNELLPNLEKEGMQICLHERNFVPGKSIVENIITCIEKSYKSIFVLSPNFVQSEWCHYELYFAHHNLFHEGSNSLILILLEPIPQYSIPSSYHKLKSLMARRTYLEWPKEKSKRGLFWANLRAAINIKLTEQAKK
Sequence (O60603 21-784): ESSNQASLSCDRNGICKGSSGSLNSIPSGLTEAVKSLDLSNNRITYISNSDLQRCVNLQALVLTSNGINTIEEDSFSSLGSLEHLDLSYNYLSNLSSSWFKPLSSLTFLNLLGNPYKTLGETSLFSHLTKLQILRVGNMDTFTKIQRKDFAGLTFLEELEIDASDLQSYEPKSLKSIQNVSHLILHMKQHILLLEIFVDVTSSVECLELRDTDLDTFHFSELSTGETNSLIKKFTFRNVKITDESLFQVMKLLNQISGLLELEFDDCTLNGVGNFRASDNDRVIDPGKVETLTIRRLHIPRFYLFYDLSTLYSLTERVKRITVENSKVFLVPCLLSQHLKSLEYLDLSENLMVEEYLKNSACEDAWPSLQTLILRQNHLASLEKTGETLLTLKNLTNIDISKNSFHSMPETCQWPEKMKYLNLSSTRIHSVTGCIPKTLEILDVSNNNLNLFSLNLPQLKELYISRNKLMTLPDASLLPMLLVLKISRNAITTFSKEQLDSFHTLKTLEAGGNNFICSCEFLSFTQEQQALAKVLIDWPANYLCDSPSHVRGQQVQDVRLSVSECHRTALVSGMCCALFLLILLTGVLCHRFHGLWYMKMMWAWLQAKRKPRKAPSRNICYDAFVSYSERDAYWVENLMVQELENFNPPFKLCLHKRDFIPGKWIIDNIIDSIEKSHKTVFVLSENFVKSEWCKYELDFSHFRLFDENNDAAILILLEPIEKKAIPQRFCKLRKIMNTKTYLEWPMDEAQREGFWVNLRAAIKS
Assay: TNF-α release from PMA-differentiated human THP-1 cells (ELISA)
Details: THP-1, 4 h, read-out: Efficacy (magnitude) of response versus diprovocim-1 (100%), THP-1
quantity.kind: Emax (%)
Response body: numeric value in %, unit text excluded.

compound: CC(C)(C)OC(=O)NC1(C(=O)OCCCCCCCCCCCCNC(=O)[C@@H]2CN(C(=O)c3ccc(C(=O)N4C[C@@H](C(=O)N[C@H]5C[C@@H]5c5ccccc5)[C@H](C(=O)N[C@H]5C[C@@H]5c5ccccc5)C4)cc3)C[C@H]2C(=O)N[C@H]2C[C@@H]2c2ccccc2)CC1 [Compound 62]
quantity.kind: Emax
measured.result: 100

Short answer please: Emax, TLR1/TLR2 (Homo sapiens, UniProt O60603+Q15399), entry CNC(=O)CCCCCCCCCCCNC(=O)[C@@H]1CN(C(=O)c2ccc(C(=O)N3C[C@@H](C(=O)N[C@H]4C[C@@H]4c4ccccc4)[C@H](C(=O)N[C@H]4C[C@@H]4c4ccccc4)C3)cc2)C[C@H]1C(=O)N[C@H]1C[C@@H]1c1ccccc1 [Compound 13]
120

----------
Biological target: TLR1/TLR2 (Homo sapiens, UniProt O60603+Q15399)
Assay: TNF-α release from PMA-differentiated human THP-1 cells (ELISA);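 further: cells exposed to graded compound concentrations for 4 h, TNF-α quantified in supernatant, LPS as positive and DMSO as negative control, values are duplicate means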
Conditions: read-out: EC50 (nM) (THP-1): EC50 TNF-α release from human THP-1 cells; Table 2
quantity.kind: EC50 (nM)

Please review the following examples before continuing.
molecule: COC(=O)CCOCCOCCOCCNC(=O)[C@@H]1CN(C(=O)c2ccc(C(=O)N3C[C@@H](C(=O)N[C@H]4C[C@@H]4c4ccccc4)[C@H](C(=O)N[C@H]4C[C@@H]4c4ccccc4)C3)cc2)C[C@H]1C(=O)N[C@H]1C[C@@H]1c1ccccc1 [Compound 29]
unit.abbreviation: nM
measured.result: 40
--
molecule: O=C(O)CCOCCOCCOCCNC(=O)[C@@H]1CN(C(=O)c2ccc(C(=O)N3C[C@@H](C(=O)N[C@H]4C[C@@H]4c4ccccc4)[C@H](C(=O)N[C@H]4C[C@@H]4c4ccccc4)C3)cc2)C[C@H]1C(=O)N[C@H]1C[C@@H]1c1ccccc1 [Compound 31]
unit.abbreviation: nM
measured.result: 100

I. O=C(NCCOCCOCCOCCO)[C@@H]1CN(C(=O)c2ccc(C(=O)N3C[C@@H](C(=O)N[C@H]4C[C@@H]4c4ccccc4)[C@H](C(=O)N[C@H]4C[C@@H]4c4ccccc4)C3)cc2)C[C@H]1C(=O)N[C@H]1C[C@@H]1c1ccccc1 [Compound 30]
II. CC(C)(C)OC(=O)CCOCCOCCOCCNC(=O)[C@@H]1CN(C(=O)c2ccc(C(=O)N3C[C@@H](C(=O)N[C@H]4C[C@@H]4c4ccccc4)[C@H](C(=O)N[C@H]4C[C@@H]4c4ccccc4)C3)cc2)C[C@H]1C(=O)N[C@H]1C[C@@H]1c1ccccc1 [Compound 28]
Would you mind telling me which has the lower recorded EC50 between I and II ? Select an item and report its label.
II
(II: 3.1 nM, I: 2000 nM)

----------
Target: TLR1/TLR2 (Mus musculus, UniProt Q9EPQ1+Q9QUN7)
Sequence (Q9EPQ1 26-795): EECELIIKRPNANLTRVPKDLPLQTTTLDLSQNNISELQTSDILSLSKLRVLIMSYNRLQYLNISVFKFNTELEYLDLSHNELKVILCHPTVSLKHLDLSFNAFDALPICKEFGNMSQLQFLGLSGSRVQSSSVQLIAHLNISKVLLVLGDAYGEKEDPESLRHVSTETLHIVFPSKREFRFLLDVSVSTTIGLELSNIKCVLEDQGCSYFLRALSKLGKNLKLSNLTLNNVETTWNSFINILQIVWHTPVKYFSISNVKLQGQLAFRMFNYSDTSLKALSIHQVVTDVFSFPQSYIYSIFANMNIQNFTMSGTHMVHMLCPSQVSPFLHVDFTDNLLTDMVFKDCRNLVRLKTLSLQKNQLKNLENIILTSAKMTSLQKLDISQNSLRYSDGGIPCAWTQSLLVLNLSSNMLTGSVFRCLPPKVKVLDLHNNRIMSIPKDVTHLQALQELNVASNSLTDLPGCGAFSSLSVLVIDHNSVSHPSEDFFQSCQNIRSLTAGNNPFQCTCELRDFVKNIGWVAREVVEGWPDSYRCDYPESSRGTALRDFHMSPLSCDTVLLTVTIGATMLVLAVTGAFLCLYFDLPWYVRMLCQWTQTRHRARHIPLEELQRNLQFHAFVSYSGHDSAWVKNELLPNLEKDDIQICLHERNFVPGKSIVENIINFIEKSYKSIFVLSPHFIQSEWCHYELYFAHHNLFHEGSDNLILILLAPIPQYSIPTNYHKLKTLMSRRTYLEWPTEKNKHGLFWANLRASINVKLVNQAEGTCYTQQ
Sequence (Q9QUN7 25-784): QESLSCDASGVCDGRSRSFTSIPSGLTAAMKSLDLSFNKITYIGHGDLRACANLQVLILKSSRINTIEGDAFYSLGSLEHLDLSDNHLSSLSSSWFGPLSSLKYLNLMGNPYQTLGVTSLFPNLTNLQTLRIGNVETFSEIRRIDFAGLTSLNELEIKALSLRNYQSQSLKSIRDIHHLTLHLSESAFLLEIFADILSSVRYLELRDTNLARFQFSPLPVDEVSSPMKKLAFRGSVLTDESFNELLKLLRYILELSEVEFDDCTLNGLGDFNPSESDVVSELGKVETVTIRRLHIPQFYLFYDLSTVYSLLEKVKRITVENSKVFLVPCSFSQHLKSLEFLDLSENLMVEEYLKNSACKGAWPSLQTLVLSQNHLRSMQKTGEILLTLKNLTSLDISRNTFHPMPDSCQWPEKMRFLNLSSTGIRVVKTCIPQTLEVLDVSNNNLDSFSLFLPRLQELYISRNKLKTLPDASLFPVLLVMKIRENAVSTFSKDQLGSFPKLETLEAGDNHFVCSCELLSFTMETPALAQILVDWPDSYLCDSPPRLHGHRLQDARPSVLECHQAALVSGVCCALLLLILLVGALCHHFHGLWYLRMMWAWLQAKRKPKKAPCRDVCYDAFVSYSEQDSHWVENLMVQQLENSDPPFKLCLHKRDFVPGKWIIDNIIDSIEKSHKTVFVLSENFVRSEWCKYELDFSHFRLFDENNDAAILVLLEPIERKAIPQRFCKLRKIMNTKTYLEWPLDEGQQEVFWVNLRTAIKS
Test: TNF-α release from thioglycolate-elicited mouse peritoneal macrophages (ELISA)
Conditions: read-out: EC50 (nM) (mouse): EC50 TNF-α release from mouse macrophages; Table 5
quantity.kind: EC50 (nM)

item.smiles: CC(C)(C)OC(=O)NCC(=O)NCC(=O)OCCCCCCCCCCCCNC(=O)[C@@H]1CN(C(=O)c2ccc(C(=O)N3C[C@@H](C(=O)N[C@H]4C[C@@H]4c4ccccc4)[C@H](C(=O)N[C@H]4C[C@@H]4c4ccccc4)C3)cc2)C[C@H]1C(=O)N[C@H]1C[C@@H]1c1ccccc1
unit.abbreviation: nM
measured.result: 2.5

A. CC(C)(C)OC(=O)NC1(C(=O)OCCCCCCCCCCCCNC(=O)[C@@H]2CN(C(=O)c3ccc(C(=O)N4C[C@@H](C(=O)N[C@H]5C[C@@H]5c5ccccc5)[C@H](C(=O)N[C@H]5C[C@@H]5c5ccccc5)C4)cc3)C[C@H]2C(=O)N[C@H]2C[C@@H]2c2ccccc2)CC1
B. CSCC[C@H](NC(=O)OC(C)(C)C)C(=O)OCCCCCCCCCCCCNC(=O)[C@@H]1CN(C(=O)c2ccc(C(=O)N3C[C@@H](C(=O)N[C@H]4C[C@@H]4c4ccccc4)[C@H](C(=O)N[C@H]4C[C@@H]4c4ccccc4)C3)cc2)C[C@H]1C(=O)N[C@H]1C[C@@H]1c1ccccc1
A or B : whose EC50 is greater? Write down the label attached to your selection.
B
(B: 44 nM, A: 10 nM)

----------
Target: TLR1/TLR2 (Mus musculus, UniProt Q9EPQ1+Q9QUN7)
Assay: TNF-α release from thioglycolate-elicited mouse peritoneal macrophages (ELISA)
Settings: 4 h, read-out: Efficacy (magnitude) of response versus diprovocim-1 (100%), mouse macrophages
quantity.kind: Emax (%)

Example entries and their recorded answers appear below.
item.smiles: CC(=O)OCCCCCCCCCCCCNC(=O)[C@@H]1CN(C(=O)c2ccc(C(=O)N3C[C@@H](C(=O)N[C@H]4C[C@@H]4c4ccccc4)[C@H](C(=O)N[C@H]4C[C@@H]4c4ccccc4)C3)cc2)C[C@H]1C(=O)N[C@H]1C[C@@H]1c1ccccc1
measured.result: 140
--
item.smiles: CC(C)(C)OC(=O)N[C@@H](CCC(=O)OCc1ccccc1)C(=O)OCCCCCCCCCCCCNC(=O)[C@@H]1CN(C(=O)c2ccc(C(=O)N3C[C@@H](C(=O)N[C@H]4C[C@@H]4c4ccccc4)[C@H](C(=O)N[C@H]4C[C@@H]4c4ccccc4)C3)cc2)C[C@H]1C(=O)N[C@H]1C[C@@H]1c1ccccc1
measured.result: 210

1. CC(C)(C)OC(=O)c1ccc(C(=O)NCC(=O)OCCCCCCCCCCCCNC(=O)[C@@H]2CN(C(=O)c3ccc(C(=O)N4C[C@@H](C(=O)N[C@H]5C[C@@H]5c5ccccc5)[C@H](C(=O)N[C@H]5C[C@@H]5c5ccccc5)C4)cc3)C[C@H]2C(=O)N[C@H]2C[C@@H]2c2ccccc2)cc1
2. O=C(CNC(=O)c1ccc(C(=O)O)cc1)OCCCCCCCCCCCCNC(=O)[C@@H]1CN(C(=O)c2ccc(C(=O)N3C[C@@H](C(=O)N[C@H]4C[C@@H]4c4ccccc4)[C@H](C(=O)N[C@H]4C[C@@H]4c4ccccc4)C3)cc2)C[C@H]1C(=O)N[C@H]1C[C@@H]1c1ccccc1
So which one has the bigger Emax here, 1 or 2 ? Give the label under which the chosen entry appears.
1

----------
Target: TLR1/TLR2 (Mus musculus, UniProt Q9EPQ1+Q9QUN7)
Assay: TNF-α release from thioglycolate-elicited mouse peritoneal macrophages (ELISA)
Settings: read-out: EC50 (nM) (mouse): EC50 TNF-α release from mouse macrophages; Table 3
quantity.kind: EC50 (nM)

molecule: O=C(NCCCCCCCCCCCCOCc1ccc([N+](=O)[O-])cc1)[C@@H]1CN(C(=O)c2ccc(C(=O)N3C[C@@H](C(=O)N[C@H]4C[C@@H]4c4ccccc4)[C@H](C(=O)N[C@H]4C[C@@H]4c4ccccc4)C3)cc2)C[C@H]1C(=O)N[C@H]1C[C@@H]1c1ccccc1 [Compound 51]
experimental.target: TLR1/TLR2 (Mus musculus, UniProt Q9EPQ1+Q9QUN7)
measured.result: 0.85
--
molecule: Nc1ccc(COCCCCCCCCCCCCNC(=O)[C@@H]2CN(C(=O)c3ccc(C(=O)N4C[C@@H](C(=O)N[C@H]5C[C@@H]5c5ccccc5)[C@H](C(=O)N[C@H]5C[C@@H]5c5ccccc5)C4)cc3)C[C@H]2C(=O)N[C@H]2C[C@@H]2c2ccccc2)cc1 [Compound 52]
experimental.target: TLR1/TLR2 (Mus musculus, UniProt Q9EPQ1+Q9QUN7)
measured.result: 2
--
molecule: N#CCC(=O)OCCCCCCCCCCCCNC(=O)[C@@H]1CN(C(=O)c2ccc(C(=O)N3C[C@@H](C(=O)N[C@H]4C[C@@H]4c4ccccc4)[C@H](C(=O)N[C@H]4C[C@@H]4c4ccccc4)C3)cc2)C[C@H]1C(=O)N[C@H]1C[C@@H]1c1ccccc1 [Compound 33]
experimental.target: TLR1/TLR2 (Mus musculus, UniProt Q9EPQ1+Q9QUN7)
measured.result: 4.5
--
molecule: CN(C)CC(=O)OCCCCCCCCCCCCNC(=O)[C@@H]1CN(C(=O)c2ccc(C(=O)N3C[C@@H](C(=O)N[C@H]4C[C@@H]4c4ccccc4)[C@H](C(=O)N[C@H]4C[C@@H]4c4ccccc4)C3)cc2)C[C@H]1C(=O)N[C@H]1C[C@@H]1c1ccccc1 [Compound 44]
experimental.target: TLR1/TLR2 (Mus musculus, UniProt Q9EPQ1+Q9QUN7)
measured.result: 4.7
--
molecule: C#CCN(C)CC(=O)OCCCCCCCCCCCCNC(=O)[C@@H]1CN(C(=O)c2ccc(C(=O)N3C[C@@H](C(=O)N[C@H]4C[C@@H]4c4ccccc4)[C@H](C(=O)N[C@H]4C[C@@H]4c4ccccc4)C3)cc2)C[C@H]1C(=O)N[C@H]1C[C@@H]1c1ccccc1 [Compound 53]
experimental.target: TLR1/TLR2 (Mus musculus, UniProt Q9EPQ1+Q9QUN7)
measured.result: 5.3
--
molecule: CC(C)(C)C(=O)NCC(=O)OCCCCCCCCCCCCNC(=O)[C@@H]1CN(C(=O)c2ccc(C(=O)N3C[C@@H](C(=O)N[C@H]4C[C@@H]4c4ccccc4)[C@H](C(=O)N[C@H]4C[C@@H]4c4ccccc4)C3)cc2)C[C@H]1C(=O)N[C@H]1C[C@@H]1c1ccccc1 [Compound 42]
experimental.target: TLR1/TLR2 (Mus musculus, UniProt Q9EPQ1+Q9QUN7)
measured.result: 6.2
--
molecule: COC(=O)NCC(=O)OCCCCCCCCCCCCNC(=O)[C@@H]1CN(C(=O)c2ccc(C(=O)N3C[C@@H](C(=O)N[C@H]4C[C@@H]4c4ccccc4)[C@H](C(=O)N[C@H]4C[C@@H]4c4ccccc4)C3)cc2)C[C@H]1C(=O)N[C@H]1C[C@@H]1c1ccccc1 [Compound 39]
experimental.target: TLR1/TLR2 (Mus musculus, UniProt Q9EPQ1+Q9QUN7)
measured.result: 6
--
molecule: C#CCOCC(=O)OCCCCCCCCCCCCNC(=O)[C@@H]1CN(C(=O)c2ccc(C(=O)N3C[C@@H](C(=O)N[C@H]4C[C@@H]4c4ccccc4)[C@H](C(=O)N[C@H]4C[C@@H]4c4ccccc4)C3)cc2)C[C@H]1C(=O)N[C@H]1C[C@@H]1c1ccccc1 [Compound 54]
experimental.target: TLR1/TLR2 (Mus musculus, UniProt Q9EPQ1+Q9QUN7)
measured.result: 4.9
--
molecule: O=C(CNC(=O)OCC(Cl)(Cl)Cl)OCCCCCCCCCCCCNC(=O)[C@@H]1CN(C(=O)c2ccc(C(=O)N3C[C@@H](C(=O)N[C@H]4C[C@@H]4c4ccccc4)[C@H](C(=O)N[C@H]4C[C@@H]4c4ccccc4)C3)cc2)C[C@H]1C(=O)N[C@H]1C[C@@H]1c1ccccc1 [Compound 37]
experimental.target: TLR1/TLR2 (Mus musculus, UniProt Q9EPQ1+Q9QUN7)
measured.result: 3.4
--
molecule: CC(=O)OCCCCCCCCCCCCNC(=O)[C@@H]1CN(C(=O)c2ccc(C(=O)N3C[C@@H](C(=O)N[C@H]4C[C@@H]4c4ccccc4)[C@H](C(=O)N[C@H]4C[C@@H]4c4ccccc4)C3)cc2)C[C@H]1C(=O)N[C@H]1C[C@@H]1c1ccccc1 [Compound 32]
experimental.target: TLR1/TLR2 (Mus musculus, UniProt Q9EPQ1+Q9QUN7)
measured.result: 1.5

P. CC(C)(C)OC(=O)COCCCCCCCCCCCCNC(=O)[C@@H]1CN(C(=O)c2ccc(C(=O)N3C[C@@H](C(=O)N[C@H]4C[C@@H]4c4ccccc4)[C@H](C(=O)N[C@H]4C[C@@H]4c4ccccc4)C3)cc2)C[C@H]1C(=O)N[C@H]1C[C@@H]1c1ccccc1 [Compound 49]
Q. O=C(NCCCCCCCCCCCCO)[C@@H]1CN(C(=O)c2ccc(C(=O)N3C[C@@H](C(=O)N[C@H]4C[C@@H]4c4ccccc4)[C@H](C(=O)N[C@H]4C[C@@H]4c4ccccc4)C3)cc2)C[C@H]1C(=O)N[C@H]1C[C@@H]1c1ccccc1 [Compound 7]
R. O=C(COCc1ccccc1)OCCCCCCCCCCCCNC(=O)[C@@H]1CN(C(=O)c2ccc(C(=O)N3C[C@@H](C(=O)N[C@H]4C[C@@H]4c4ccccc4)[C@H](C(=O)N[C@H]4C[C@@H]4c4ccccc4)C3)cc2)C[C@H]1C(=O)N[C@H]1C[C@@H]1c1ccccc1 [Compound 46]
S. NCC(=O)OCCCCCCCCCCCCNC(=O)[C@@H]1CN(C(=O)c2ccc(C(=O)N3C[C@@H](C(=O)N[C@H]4C[C@@H]4c4ccccc4)[C@H](C(=O)N[C@H]4C[C@@H]4c4ccccc4)C3)cc2)C[C@H]1C(=O)N[C@H]1C[C@@H]1c1ccccc1 [Compound 43]
T. [N-]=[N+]=NCC(=O)OCCCCCCCCCCCCNC(=O)[C@@H]1CN(C(=O)c2ccc(C(=O)N3C[C@@H](C(=O)N[C@H]4C[C@@H]4c4ccccc4)[C@H](C(=O)N[C@H]4C[C@@H]4c4ccccc4)C3)cc2)C[C@H]1C(=O)N[C@H]1C[C@@H]1c1ccccc1 [Compound 34]
Kindly order the items shown according to EC50, from the highest value down. Form field (ranking): labels in requested order.
R, T, P, Q, S
(R: 5.3 nM, T: 3.7 nM, P: 1.8 nM, Q: 1.2 nM, S: 0.75 nM)
